Parameter Percent Effect: see the listing below.
- Tested on: Wolbachia pipientis
- test-method-notes: Anti-Wolbachia Cell-Based Screen
- Format: functional
- Design: scale not given: in the data most compounds retested in dose-response had high values
- condition-summary: 5 µM
Out of some 48,000 compounds screened, about 13,000 (27%) showed an effect of 50% or more. The list shows a part of the results.
measured-quantity: Percent Effect (%)

>>> reported("CC1CN(c2ncccc2C(=O)Nc2cccc3c2CCCC3)CCN1 (centres undefined)")
121.2
>>> reported("Cc1ncccc1OC1(C(=O)NCCNc2ccccc2)CCNCC1")
-10.51
>>> reported("O=C(CS(=O)(=O)c1ccccn1)NC1CCCc2ccccc21 (centres undefined)")
25.59
>>> reported("CCNc1c(C#N)c(=O)n(C)c(=O)n1C")
7.391
>>> reported("O=C(CS(=O)(=O)c1ncccc1Cl)NC1CCCc2ccccc21 (centres undefined)")
0.01745
>>> reported("CN(C)CCSc1ccc(NC(=O)c2nccn3ccnc23)cc1")
11.77
>>> reported("c1ccc(Cc2noc(-c3ccc(NCC4CCCCO4)nc3)n2)cc1 (centres undefined)")
127.1
>>> reported("O=C(NCC1COCCO1)c1csc(Cc2ccccc2)n1 (centres undefined)")
-4.558
>>> reported("CN1C(=O)[C@H](OC(N)=O)[C@@H](C(=O)Nc2ccccc2)C12CCNCC2")
104.3

----------
- System: Wolbachia pipientis
- test-method-notes: Anti-Wolbachia Cell-Based Screen
- Assay type: functional
- Set-up: scale not given: in the data most compounds retested in dose-response had high values
- condition-summary: 5 µM
The whole screen tested about 48,000 compounds, of which about 13,000 (27%) showed an effect of 50% or more. This is one part of the list.
Parameter Percent Effect: see the listing below.
measured-quantity: Percent Effect (%)

>>> reported("Cc1csc2ncc(-c3ccnc(N4CCN(C)CC4)n3)c(=O)n12")
4.781
>>> reported("CCn1nnnc1-c1cccc(NC(=O)CCn2cc(C)cn2)c1")
2.601
>>> reported("CCn1cnnc1CNC(=O)N1CCN(c2ccccc2Cl)CC1")
101.2
>>> reported("NC(=O)CN1CC2(CCC1=O)CCN(Cc1cc(F)ccc1Cl)CC2")
6.267
>>> reported("CCn1cnnc1CNC(=O)N1CCOC(c2ccc(Cl)cc2)C1 (configuration not stated)")
-28.88
>>> reported("Cc1cnn(CCNCC(=O)NCc2ccccc2)c1")
3.726
>>> reported("Cc1nc(CN2CCCC2Cn2cncn2)nc2ccccc12 (configuration not stated)")
12.85
>>> reported("Cl.c1ncc(-c2ccc(C3CNCCO3)nc2)cn1 (configuration not stated)")
106.1
>>> reported("COCCN1C(=O)[C@H]2CC[C@@H]1CN(Cc1nnc(C3CC3)o1)C2")
101
>>> reported("Cc1ccc(-c2ccc(C3CNCCO3)nc2)cc1.Cl (configuration not stated)")
114.4
>>> reported("CC(=O)N(C)c1nc(CN2CCCCC2Cn2cncn2)cs1 (configuration not stated)")
-7.447
>>> reported("CC(NC(=O)NC1CCN(Cc2ccncc2)CC1)c1ccccc1F (configuration not stated)")
-8.351
>>> reported("Cc1nccn1CCCC(=O)N1CCC(N(C)c2cccnn2)CC1")
114.4
>>> reported("Cc1c(CNC(=O)C2CCCCCN2C)oc2ccccc12 (configuration not stated)")
0.5854
>>> reported("O=c1[nH]c(C2CCOC2)nc2ccc(Br)cc12 (configuration not stated)")
-44.09
>>> reported("Cc1cnn(CCCNC(=O)NCCS(=O)(=O)Nc2ccccc2)c1")
96.15
>>> reported("COCCN1C(=O)[C@H]2CC[C@@H]1CN(Cc1nnc(-c3ccccc3)o1)C2")
112.1
>>> reported("Cc1ccc(-c2csc3c(=O)[nH]c(N4CCCC(C(N)=O)C4)nc23)cc1 (configuration not stated)")
13.87
>>> reported("Cc1ncsc1C(=O)NCc1cccnc1N(C)CCc1ccccn1")
6.517
>>> reported("CCc1cnccc1C(=O)NC1CCN(Cc2ccccc2F)CC1")
94.68
>>> reported("O=C(NC1CC1)c1cc(NC(=O)N2CCCC2)ccc1Cl")
-51.77
>>> reported("Cc1nc(CN2CCCCC2Cn2cncn2)nc2ccccc12 (configuration not stated)")
1.919
>>> reported("Cl.Clc1ccc(-c2ccc(C3CNCCO3)nc2)cc1 (configuration not stated)")
122.6
>>> reported("CN(C)C(=O)Cc1nc(CN2CCCC2Cn2cncn2)cs1 (configuration not stated)")
-5.183
>>> reported("Cc1ccccc1N1CCCN(C(=O)CCCn2ccnc2C)CC1")
7.495
>>> reported("Cc1noc(-c2ccc(N3CCCC(C(N)=O)C3)nc2)n1 (configuration not stated)")
-1.352
>>> reported("CC1CCN(CCCNC(=O)Nc2cc3c(cc2Br)OCCO3)CC1")
-0.7212
>>> reported("Cc1cnn(CCNCCCOc2ccccc2)c1")
2.655
>>> reported("O=C1[C@H]2CC[C@H](CN(C3CCOCC3)C2)N1Cc1cscn1")
-44.85
>>> reported("CCC1CN(Cc2nnc(C3CC3)o2)CCN1CCOC (configuration not stated)")
-15.54
>>> reported("c1ccc2oc(CCCN3CCCCC3Cn3cncn3)nc2c1 (configuration not stated)")
92.19
>>> reported("Cc1nccn1CCCC(=O)N1CCCN(c2cccnn2)CC1")
66.22

Data provenance: ChEMBL document CHEMBL3988442
